experimental-parameters: in n-butanol, 318.15 K
readout-label: solubility (mole fraction)
Please reply with the number alone, leaving off any unit.

So what does the record say about solubility (mole fraction) for O=S(=O)([O-])Oc1ccc(C(c2ccc(OS(=O)(=O)[O-])cc2)c2ccccn2)cc1.[Na+].[Na+] ? 0.0022

====

experimental-parameters: in DMSO, 318.15 K
readout-label: solubility (mole fraction)

solubility (mole fraction) lookup needed for O=S(=O)([O-])Oc1ccc(C(c2ccc(OS(=O)(=O)[O-])cc2)c2ccccn2)cc1.[Na+].[Na+] , thanks. 0.0099

====

experimental-parameters: in n-propanol, 313.15 K
readout-label: solubility (mole fraction)

Would you mind telling me what solubility (mole fraction) value was observed for O=S(=O)([O-])Oc1ccc(C(c2ccc(OS(=O)(=O)[O-])cc2)c2ccccn2)cc1.[Na+].[Na+] ? 0.0014

====

experimental-parameters: in methanol, 313.15 K
readout-label: solubility (mole fraction)
Simply state the number, no unit and no words.

Requested field: solubility (mole fraction). Item: O=S(=O)([O-])Oc1ccc(C(c2ccc(OS(=O)(=O)[O-])cc2)c2ccccn2)cc1.[Na+].[Na+] 0.0178

====

experimental-parameters: in n-butanol, 298.15 K
readout-label: solubility (mole fraction)
The reply should be a number, written without any unit.

For the compound O=S(=O)([O-])Oc1ccc(C(c2ccc(OS(=O)(=O)[O-])cc2)c2ccccn2)cc1.[Na+].[Na+] , what solubility (mole fraction) is on record? 0.0001

====

experimental-parameters: in acetonitrile, 313.15 K
readout-label: solubility (mole fraction)
The answer should be a number; do not append a unit.

Quick one: solubility (mole fraction) for O=S(=O)([O-])Oc1ccc(C(c2ccc(OS(=O)(=O)[O-])cc2)c2ccccn2)cc1.[Na+].[Na+] ? 0.0005

====

experimental-parameters: in DMSO, 298.15 K
readout-label: solubility (mole fraction)

Request the reported solubility (mole fraction) associated with O=S(=O)([O-])Oc1ccc(C(c2ccc(OS(=O)(=O)[O-])cc2)c2ccccn2)cc1.[Na+].[Na+] 0.0049

====

experimental-parameters: in acetonitrile, 308.15 K
readout-label: solubility (mole fraction)

solubility (mole fraction) for O=S(=O)([O-])Oc1ccc(C(c2ccc(OS(=O)(=O)[O-])cc2)c2ccccn2)cc1.[Na+].[Na+] ? 0.0003

====

experimental-parameters: in ethanol, 303.15 K
readout-label: solubility (mole fraction)
Just the number, please, no unit after it.

// lookup solubility (mole fraction) for O=S(=O)([O-])Oc1ccc(C(c2ccc(OS(=O)(=O)[O-])cc2)c2ccccn2)cc1.[Na+].[Na+] 0.0015

====

experimental-parameters: in acetonitrile, 318.15 K
readout-label: solubility (mole fraction)
API note: the answer field is a bare number with no unit suffix.

// solubility (mole fraction) lookup, key: O=S(=O)([O-])Oc1ccc(C(c2ccc(OS(=O)(=O)[O-])cc2)c2ccccn2)cc1.[Na+].[Na+] 0.001

====

experimental-parameters: in acetic acid, 318.15 K
readout-label: solubility (mole fraction)

What value of solubility (mole fraction) has been recorded for this entry: O=S(=O)([O-])Oc1ccc(C(c2ccc(OS(=O)(=O)[O-])cc2)c2ccccn2)cc1.[Na+].[Na+] 0.0046

====

experimental-parameters: in DMF, 303.15 K
readout-label: solubility (mole fraction)
Provide a numeric answer; units are not to be included.

So what does the record say about solubility (mole fraction) for O=S(=O)([O-])Oc1ccc(C(c2ccc(OS(=O)(=O)[O-])cc2)c2ccccn2)cc1.[Na+].[Na+] ? 0.0321

====

experimental-parameters: in n-butanol, 303.15 K
readout-label: solubility (mole fraction)
// return a plain number; no unit text

# lookup: solubility (mole fraction) of O=S(=O)([O-])Oc1ccc(C(c2ccc(OS(=O)(=O)[O-])cc2)c2ccccn2)cc1.[Na+].[Na+] 0.0002

====

experimental-parameters: in ethanol, 313.15 K
readout-label: solubility (mole fraction)

Requested read-out: solubility (mole fraction). Entry: O=S(=O)([O-])Oc1ccc(C(c2ccc(OS(=O)(=O)[O-])cc2)c2ccccn2)cc1.[Na+].[Na+] 0.003

====

experimental-parameters: in n-butanol, 313.15 K
readout-label: solubility (mole fraction)
Could you keep your reply to the number by itself?

Given O=S(=O)([O-])Oc1ccc(C(c2ccc(OS(=O)(=O)[O-])cc2)c2ccccn2)cc1.[Na+].[Na+] , state its recorded solubility (mole fraction). 0.0011

====

experimental-parameters: in water, 303.15 K
readout-label: solubility (mole fraction)
Write the number on its own, no unit after it.

Please report the recorded solubility (mole fraction) for O=S(=O)([O-])Oc1ccc(C(c2ccc(OS(=O)(=O)[O-])cc2)c2ccccn2)cc1.[Na+].[Na+] . 0.0252

====

experimental-parameters: in ethanol, 298.15 K
readout-label: solubility (mole fraction)
Answer with the value's number alone.

Give its solubility (mole fraction) value. Item: O=S(=O)([O-])Oc1ccc(C(c2ccc(OS(=O)(=O)[O-])cc2)c2ccccn2)cc1.[Na+].[Na+] 0.0011

====

experimental-parameters: in methanol, 308.15 K
readout-label: solubility (mole fraction)
Provide a numeric answer; units are not to be included.

What value of solubility (mole fraction) has been recorded for this entry: O=S(=O)([O-])Oc1ccc(C(c2ccc(OS(=O)(=O)[O-])cc2)c2ccccn2)cc1.[Na+].[Na+] 0.0142

====

experimental-parameters: in n-butanol, 308.15 K
readout-label: solubility (mole fraction)

Requested field: solubility (mole fraction). Item: O=S(=O)([O-])Oc1ccc(C(c2ccc(OS(=O)(=O)[O-])cc2)c2ccccn2)cc1.[Na+].[Na+] 0.0005

====

experimental-parameters: in n-propanol, 298.15 K
readout-label: solubility (mole fraction)
Lab note: jot the number down without any unit.

# get_value(readout='solubility (mole fraction)', item= O=S(=O)([O-])Oc1ccc(C(c2ccc(OS(=O)(=O)[O-])cc2)c2ccccn2)cc1.[Na+].[Na+] ) 0.0002

Provenance of the data: BigSolDB 2.1
